Tested on: OVCAR-8
ASSAY NOTES: NCI tumour cell line growth inhibition, 48 h
Calls of active or inactive are those of the source. Cut-off read from the data, not from the text of the source: active = GI50 up to about 1.1 µM and inactive = higher.
// reported GI50 for each item listed
MEASURED PROPERTY: GI50

- COMPOUND: "C[S+]=c1sc2ccccc2s1"
  READING: "> 100 µM (inactive)"
- COMPOUND: "O=C1CC2(CCC3=C(O2)c2ccccc2NC(=O)C3)C(=O)c2ccccc2N1 (stereo not drawn)"
  READING: "> 100 µM (inactive)"
- COMPOUND: "COCCN(C(C)=O)C1CCC2(SCCS2)c2[nH]c3ccccc3c21 (stereo not drawn)"
  READING: "> 100 µM (inactive)"

----------
As shown below, each of these molecules has a reported GI50 value.
System: MDA-MB-435
ASSAY NOTES: NCI tumour cell line growth inhibition, 48 h
Active and inactive are the calls of the source. Cut-off read from the data, not from the text of the source: active = GI50 up to about 1.1 µM and inactive = higher.
MEASURED PROPERTY: GI50

- MOLECULE: "COC1C(OC(=O)c2ccc(C)[nH]2)C(O)C(Oc2ccc3c(O)c(NC(=O)c4ccc(O)c(CC=C(C)C)c4)c(=O)oc3c2Cl)OC1(C)C (stereo not given)"
  READING: "30.2 µM (inactive)"
- MOLECULE: "N#CC1(O)CCCCCCCCCCC1"
  READING: "> 100 µM (inactive)"
- MOLECULE: "CCCCCCCCCCCCNC(=O)CCC(NC(=O)c1ccc(N(C)Cc2cnc3nc(N)nc(N)c3n2)cc1)C(=O)NCCCCCCCCCCCC (stereo not given)"
  READING: "52.8 µM (inactive)"
- MOLECULE: "COc1cc(C2SCC(=O)N2c2cc(Cl)c(Cl)cc2Cl)cc(OC)c1OC (stereo not given)"
  READING: "30.5 µM (inactive)"
- MOLECULE: "COC(=O)c1csc(-c2csc(CCNC(=O)OC(C)(C)C)n2)n1"
  READING: "> 100 µM (inactive)"

----------
Test system: MOLT-4
ASSAY NOTES: NCI tumour cell line growth inhibition, 48 h
Active and inactive are the calls of the source. Rule as the data show it: active = GI50 up to about 1.1 µM and inactive = higher.
MEASURED PROPERTY: GI50

- MOLECULE: "COc1ccc(C(=O)C(C(=O)C(=O)Nc2nc3ccc(OC)cc3s2)c2ccc(OC)cc2)cc1 (stereo unspecified)"
  READING: "> 100 µM (inactive)"
- MOLECULE: "O=C1/C(=C\\c2ccc(Cl)cc2)N=C(c2ccccc2)N1n1c(=O)cn[nH]c1=S"
  READING: "18.7 µM (inactive)"
- MOLECULE: "Cc1ncc(CI)c(CI)c1O"
  READING: "12.7 µM (inactive)"
- MOLECULE: "Cc1ccc(Nc2n[nH]c(=S)s2)cc1C"
  READING: "59.3 µM (inactive)"
- MOLECULE: "O=C1Nc2ccccc2C1Cc1ccc([N+](=O)[O-])cc1 (stereo unspecified)"
  READING: "14.1 µM (inactive)"
- MOLECULE: "C[C@]12CCC(=O)C(OC(=O)c3ccc([N+](=O)[O-])cc3)=C1CCC2=O"
  READING: "> 100 µM (inactive)"
- MOLECULE: "COC(=O)CCC(NC(=S)N/N=C(\\C)c1cnccn1)C(=O)OC (stereo unspecified)"
  READING: "15.7 µM (inactive)"
- MOLECULE: "SC[C@@H]1COC[C@H](CS)S1"
  READING: "> 100 µM (inactive)"
- MOLECULE: "NC1=Nc2cc(Cl)ccc2Sc2nc3ccccc3n21"
  READING: "2.61 µM (inactive)"
- MOLECULE: "O=C1OC(C2Cc3ccc4ccccc4c3C2=O)c2ccccc21 (stereo unspecified)"
  READING: "31.4 µM (inactive)"
- MOLECULE: "CC1=NN(c2nc(N)nc(C(C#N)C(=O)c3cc4c(cc3Cl)Sc3nccn3S4(=O)=O)n2)C(C)(C)C1 (stereo unspecified)"
  READING: "13 µM (inactive)"
